molecular target: human TSLP-His (human) (UniProt Q969D9); assay: ELISA, human TSLP-His coated, antibody titrated, anti-human Fc-HRP
Sequence (Q969D9 other isoform, or with tags, fused parts or gaps limits assumed): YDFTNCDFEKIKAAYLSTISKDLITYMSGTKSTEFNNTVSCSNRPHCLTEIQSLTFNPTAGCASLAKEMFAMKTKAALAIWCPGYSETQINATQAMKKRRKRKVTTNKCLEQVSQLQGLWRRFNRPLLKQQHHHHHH
Property Measured: pEC50
In simple prose, pEC50 is minus the logarithm base ten of a concentration in moles per litre.

Fill blank: measured pEC50 of the substance Control antibody (control anti-TSLP antibody, chEMBL ID CHEMBL3707229) is ____.
8.85

###

biological target: human TSLP-His (human); assay: ELISA, human TSLP-His coated, antibody titrated
Property Measured: EC50 (nM)
Entry rule: numbers only, all in nM.

Fill blank: measured EC50 of the substance Control antibody (control anti-TSLP antibody, chEMBL ID CHEMBL3707229) is ____.
0.233

Reference for the values: patent US20220363781A1
